- Test method notes: in vitro
- Format: in vitro ADME, human
- Measurement setup: human, microsomes; HLM 0.50 mg/mL, NADPH 1 mM, 1 μM compound, pH 7.4, 37° C., 60 min; read-out: Intrinsic clearance (Clint)
Catalogue of microsomal CLint values

Compound	microsomal CLint
CCN(CC)C(=O)[C@@H]1C=C2c3cccc4[nH]cc(c34)C[C@H]2N(Cc2ncco2)C1 [Compound 74]	45.5 µL/min/mg
CCCN(CC)C(=O)[C@H]1C=C2c3cccc4[nH]cc(c34)C[C@H]2N(Cc2ccccc2)C1 [Compound 86a]	95.2 µL/min/mg
CCCN(CC)C(=O)[C@@H]1C=C2c3cccc4[nH]cc(c34)C[C@H]2N(Cc2ccccc2)C1 [Compound 86]	128 µL/min/mg
CCN(CC)C(=O)[C@H]1C=C2c3cccc4[nH]cc(c34)C[C@H]2N(CC2CCCCC2)C1 [Compound 89a]	91.5 µL/min/mg
CCN(CC)C(=O)[C@@H]1C=C2c3cccc4[nH]cc(c34)C[C@H]2N(Cc2ccc(Cl)cc2)C1 [Compound 50]	65 µL/min/mg
CCN(CC)C(=O)[C@@H]1C=C2c3cccc4[nH]cc(c34)C[C@H]2N(Cc2cccc3ccccc23)C1 [Compound 101]	84.6 µL/min/mg
CCN(CC)C(=O)[C@@H]1C=C2c3cccc4[nH]cc(c34)C[C@H]2N(Cc2cccc(O)c2)C1 [Compound 62]	134 µL/min/mg
CCN(CC)C(=O)[C@@H]1C=C2c3cccc4[nH]cc(c34)C[C@H]2N(Cc2ccon2)C1 [Compound 70]	54.3 µL/min/mg
CCCN(CC)C(=O)[C@@H]1C=C2c3cccc4[nH]cc(c34)C[C@H]2N(Cc2cccc(OC)c2)C1 [Compound 93]	152 µL/min/mg
CCN(CC)C(=O)[C@@H]1C=C2c3cccc4[nH]cc(c34)C[C@H]2N(Cc2cccc(C#N)c2)C1 [Compound 76]	64.1 µL/min/mg
CCN(CC)C(=O)[C@@H]1C=C2c3cccc4[nH]cc(c34)C[C@H]2N(Cc2ccncc2)C1 [Compound 51]	34.3 µL/min/mg
CN(C)C(=O)[C@@H]1C=C2c3cccc4[nH]cc(c34)C[C@H]2N(Cc2ccccc2)C1 [Compound 102]	16.9 µL/min/mg
CCNC(=O)[C@@H]1C=C2c3cccc4[nH]cc(c34)C[C@H]2N(Cc2cccc(OC)c2)C1 [Compound 63]	442 µL/min/mg
CC[C@@H](C)NC(=O)[C@@H]1C=C2c3cccc4[nH]cc(c34)C[C@H]2N(Cc2ccccc2)C1 [Compound 88]	455 µL/min/mg
CCN(CC)C(=O)[C@@H]1C=C2c3cccc4[nH]cc(c34)C[C@H]2N(Cc2ccccc2C)C1 [Compound 99]	86.4 µL/min/mg
CCN(CC)C(=O)[C@@H]1C=C2c3cccc4[nH]cc(c34)C[C@H]2N(Cc2cccnc2)C1 [Compound 55]	56 µL/min/mg
CCN(C)C(=O)[C@H]1C=C2c3cccc4[nH]cc(c34)C[C@H]2N(Cc2ccccc2)C1 [Compound 85a]	156 µL/min/mg
CCN(CC)C(=O)[C@@H]1C=C2c3cccc4[nH]cc(c34)C[C@H]2N(CC2CCCCC2)C1 [Compound 89]	104 µL/min/mg
CCN(CC)C(=O)[C@@H]1C=C2c3cccc4[nH]cc(c34)C[C@H]2N(CC2CCCC2)C1 [Compound 90]	140 µL/min/mg
CCN(C)C(=O)[C@@H]1C=C2c3cccc4[nH]cc(c34)C[C@H]2N(Cc2cccc(OC)c2)C1 [Compound 92]	140 µL/min/mg
CCN(CC)C(=O)[C@@H]1C=C2c3cccc4[nH]cc(c34)C[C@H]2N(Cc2cnco2)C1 [Compound 75]	35 µL/min/mg
CCN(CC)C(=O)[C@H]1C=C2c3cccc4[nH]cc(c34)C[C@H]2N(CC2CCCC2)C1 [Compound 90a]	158 µL/min/mg
CCN(CC)C(=O)[C@@H]1C=C2c3cccc4[nH]cc(c34)C[C@H]2N(Cc2cocn2)C1 [Compound 73]	45.6 µL/min/mg
C[C@H]1C[C@H](C)N1C(=O)[C@@H]1C=C2c3cccc4[nH]cc(c34)C[C@H]2N(Cc2ccccc2)C1 [Compound 87]	97.2 µL/min/mg
COc1cccc(CN2C[C@H](C(=O)N3[C@@H](C)C[C@@H]3C)C=C3c4cccc5[nH]cc(c45)C[C@H]32)c1 [Compound 94]	116 µL/min/mg
O=C([C@H]1C=C2c3cccc4[nH]cc(c34)C[C@H]2N(Cc2ccccc2)C1)N1CCCC1 [Compound 84a]	154 µL/min/mg
CCN(C)C(=O)[C@@H]1C=C2c3cccc4[nH]cc(c34)C[C@H]2N(CC2CCCC2)C1 [Compound 103]	121 µL/min/mg
O=C([C@@H]1C=C2c3cccc4[nH]cc(c34)C[C@H]2N(Cc2ccccc2)C1)N1CCCC1 [Compound 84]	89.7 µL/min/mg
CC[C@@H](C)NC(=O)[C@H]1C=C2c3cccc4[nH]cc(c34)C[C@H]2N(Cc2ccccc2)C1 [Compound 88a]	302 µL/min/mg
CCNC(=O)[C@@H]1C=C2c3cccc4[nH]cc(c34)C[C@H]2N(Cc2cccc(O)c2)C1 [Compound 64]	100 µL/min/mg
